Where these numbers come from: ChEMBL document CHEMBL3297689

- System: NCI-H460
- PROCEDURE DETAILS: Growth inhibition of human NCI-H460 cells after 72 hrs by coulter counter method
- Assay type: functional, cell-based
- ASSAY SETUP: NCI-H460, 72 h
Listed next: entries and their corresponding pIC50.
// field semantics: pIC50 = negative decimal log of concentration (mol/L)

CCn1c(-c2nonc2N)nc2c(C#CC(C)(C)O)ncc(OC[C@H]3CCCNC3)c21    5.27
NC1(c2ccc(-c3nc4ccn5c(=O)[nH]nc5c4cc3-c3ccccc3)cc2)CCC1    5.27

Now for a further molecule.
Tell me the measured pIC50 of C=CC(=O)[C@H](Cc1ccccc1)NC(=O)OC(C)(C)C , please.
4.64

---

- PROCEDURE DETAILS: Inhibition of PKAalpha (unknown origin) after 1 hr by Z'-LYTE kinase assay in presence of 4 uM ATP
- Set-up: species or system Homo sapiens
ASSAY READOUT: IC50 (µM)
Your answer should be a plain number; it is taken to be in µM.

Tell me the measured IC50 of C=CC(=O)[C@H](Cc1ccccc1)NC(=O)OC(C)(C)C , please.
52.6
